Origin of the recorded values: patent US20100111959A1

pKd reference
Biological target: human IL-13 R130Q variant (R110Q of the mature chain) (human) (UniProt P35225)
Test: Biacore SPR, mAb from HEK293
pKd: −log10 of the molar value.
ENDPOINT LABEL: pKd

>>> reported_result("mAb Lc-2B03 + Hc2 M34E, M100L (antibody, human IgG1, V domains shown) VH: QVTLKESGPVLVKPTETLTLTCTVSGFSLSTYGEGVGWIRQPPGKALEWLAHIWWDDVKRYNPALKSRLTISKDTSKSQVVLTMTNMDPVDTATYYCARLGSDYDVWFDYWGQGTLVTVSS VL: EIVLTQSPATLSLSPGERATLSCRASKSISKYLAWYQQKPGQAPRLLIYSGSTLQSGIPARFSGSGSGTDFTLTISSLEPEDFAVYYCQQHDYPYTFGQGTKLEIKR")
11.12
>>> reported_result("mAb Lc-2B03 + Hc2 M34S, M100L (antibody, human IgG1, V domains shown) VH: QVTLKESGPVLVKPTETLTLTCTVSGFSLSTYGSGVGWIRQPPGKALEWLAHIWWDDVKRYNPALKSRLTISKDTSKSQVVLTMTNMDPVDTATYYCARLGSDYDVWFDYWGQGTLVTVSS VL: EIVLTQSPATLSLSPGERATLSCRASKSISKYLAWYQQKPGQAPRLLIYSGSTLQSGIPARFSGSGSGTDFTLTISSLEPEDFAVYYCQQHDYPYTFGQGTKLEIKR")
11.85
>>> reported_result("mAb Lc-2B03 + Hc2 T31S, M34S, M100L, V106I (antibody, human IgG1, V domains shown) VH: QVTLKESGPVLVKPTETLTLTCTVSGFSLSSYGSGVGWIRQPPGKALEWLAHIWWDDVKRYNPALKSRLTISKDTSKSQVVLTMTNMDPVDTATYYCARLGSDYDIWFDYWGQGTLVTVSS VL: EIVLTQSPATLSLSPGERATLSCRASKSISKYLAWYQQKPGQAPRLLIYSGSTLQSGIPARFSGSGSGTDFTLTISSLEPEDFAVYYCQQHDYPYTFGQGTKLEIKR")
10.82
>>> reported_result("mAb Lc-2B03 + Hc2 T31S, M34S, M100L (antibody, human IgG1, V domains shown) VH: QVTLKESGPVLVKPTETLTLTCTVSGFSLSSYGSGVGWIRQPPGKALEWLAHIWWDDVKRYNPALKSRLTISKDTSKSQVVLTMTNMDPVDTATYYCARLGSDYDVWFDYWGQGTLVTVSS VL: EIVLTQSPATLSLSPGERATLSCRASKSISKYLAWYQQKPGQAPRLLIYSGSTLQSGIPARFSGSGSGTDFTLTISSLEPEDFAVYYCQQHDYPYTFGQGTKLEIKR")
10.91
